B1: Caulobacter ParB omega fusion; a variant is named by its letters at X, in order, B8GW30 (parent)
chain: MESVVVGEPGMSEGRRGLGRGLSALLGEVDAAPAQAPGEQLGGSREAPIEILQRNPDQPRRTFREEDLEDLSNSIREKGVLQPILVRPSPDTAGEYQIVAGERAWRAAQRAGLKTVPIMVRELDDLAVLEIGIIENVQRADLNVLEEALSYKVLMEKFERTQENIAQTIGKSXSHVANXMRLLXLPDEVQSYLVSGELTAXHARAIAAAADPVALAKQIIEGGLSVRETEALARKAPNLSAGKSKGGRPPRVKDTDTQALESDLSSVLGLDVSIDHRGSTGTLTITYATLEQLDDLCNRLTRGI

- Variants of: B1
- testSummary: one-hybrid fitness for binding parS DNA (scaled: cognate 1, non-cognate 0); higher = stronger binding
- runParameters: with parS DNA site
Whole data set: some 81,000 sequences, median “one-hybrid fitness for binding parS DNA” near -0.17, cut for the highest 2% near 0.51. The sample as a whole holds a higher share of the highest values than the screen did.
assayReadout: one-hybrid fitness for binding parS DNA

Example variants with recorded one-hybrid fitness for binding parS DNA:
Q: Provide only the value of recorded one-hybrid fitness for binding parS DNA for RKVC
A: 0.868

Q: Provide only the value of recorded one-hybrid fitness for binding parS DNA for RKKQ
A: ≤ 0.2

Q: Provide only the value of recorded one-hybrid fitness for binding parS DNA for RMVS
A: 1.04

// each listed variant needs a value for one-hybrid fitness for binding parS DNA
1. RKVP
2. SIHL
3. ETSR
4. RMKN
5. HMPR

A:
["≤ 0.2", "≤ 0.2", "≤ 0.2", 0.432, "≤ 0.2"]
